- Tested on: MDA-MB-231
- test summary: NCI tumour cell line growth inhibition, 48 h
Activity calls are given as the source filed them. Rule as the data show it: active = GI50 up to about 1.1 µM and inactive = higher.
Can you answer with just one of these options? true (1) for active, false (0) for inactive

For orientation, consider the following solved cases.
Assay outcome for O=C(OCCC12CC3CC(CC(C3)C1)C2)c1ccc(NCc2cc(O)ccc2O)cc1 : what was it?
false (0)

Assay outcome for O=C(Cc1ccccc1)NNc1nc(NNC(=O)c2ccncc2)nc(Nc2ccc(Cl)cc2)n1 : what was it?
false (0)

Assay outcome for NC(CP(=O)(O)O)C(=O)O (stereo not drawn) : what was it?
false (0)

Further cases:
Assay outcome for COc1cc(Nc2ccc3c(c2)CCC3)nc(OC)n1 : what was it?
false (0)

Assay outcome for Cc1ccc2c(c1)CN(C(=O)CCC(=O)OCc1ccccc1)c1ccc(C)cc1CN2C(=O)CCC(=O)OCc1ccccc1 : what was it?
false (0)

Assay outcome for CC(C)(Oc1ccc2c(=O)cc(-c3ccccc3)oc2c1)C(=O)N1CCN(c2ccccc2)CC1 : what was it?
false (0)

Assay outcome for Cc1oc2nc1C(=O)NCc1nc(cs1)C(=O)N[C@H](C(C)C)c1nc(cs1)C(=O)N[C@H]2C : what was it?
false (0)

Assay outcome for O=C(Nc1ccccn1)c1cc2c(cc1Cl)Sc1nccn1S2(=O)=O : what was it?
false (0)

Assay outcome for COc1ccc(/N=C2\C(=N/c3ccc(OC)cc3)N(S(=O)(=O)c3ccccc3)C(=S)N2c2ccc(OC)cc2)cc1 : what was it?
false (0)

Assay outcome for COc1ccccc1CC1(O)OC(=O)c2ccccc21 (stereo not drawn) : what was it?
false (0)

Assay outcome for Nc1ccc(S(=O)(=O)c2ccc(NCN3C(=O)NC(=O)C(=O)C3=O)cc2)cc1 : what was it?
false (0)

Assay outcome for COc1cc([C@@H]2c3cc4c(cc3[C@@H](OC3OC5CO[C@@H](c6cccs6)OC5C(O)C3O)[C@H]3COC(=O)[C@H]23)OCO4)cc(OC)c1O (stereo partly drawn) : what was it?
true (1)

Assay outcome for Cc1ccc2c(c1C)C(=O)/C(=C/c1cccc(C)c1C(=O)O)C2 : what was it?
false (0)

Assay outcome for CC(=O)c1c2n(n(-c3ccccc3)c1=O)C(=O)c1nccnc1-2 : what was it?
false (0)

Assay outcome for CN(C)CCn1nc(N)c2nc3cc(C(F)(F)F)ccc3nc21 : what was it?
false (0)

Assay outcome for CC(C)(C)OC(=O)N1CCC2(C)CC(=O)CC=C12 (stereo not drawn) : what was it?
false (0)

Assay outcome for C=C(C)[C@H]1C2=CC(C)=C(O2)[C@@H](O[C@@H]2c3oc(cc3C)[C@H](C(=C)C)[C@H]3C=C(CC[C@H]2C(=C)C)C(=O)O3)[C@H](C(=C)C)CCC2=C[C@H]1OC2=O : what was it?
false (0)

Assay outcome for Cc1ccc(NC(=O)/C(Cc2cc(=O)oc3cc(O)ccc23)=N\NC(=O)C[N+](C)(C)C)cc1C : what was it?
false (0)

###

In this section we review reported GI50 values for a set of molecules.
- Test system: TK-10
- test summary: NCI tumour cell line growth inhibition, 48 h
Active and inactive are the calls of the source. Rule as the data show it: active = GI50 up to about 1.1 µM and inactive = higher.

Before answering, review these 3 worked examples.
# GI50 (molecule: CCCCCC(C)C[C@H]1CO[C@H](c2ccc[nH]2)N[C@H]1C(=O)OC (some centres undefined) ) is > 100 µM (inactive)

# GI50 (molecule: Nc1ccc(Oc2ccc(C34CC5CC6C3CC3CC4C(C5)C6(c4ccc(Oc5ccc(N)c(O)c5)cc4)C3)cc2)cc1O ) is 4.92 µM (inactive)

# GI50 (molecule: COc1c(NC(C)=O)c2ccccc2c2ccccc12 ) is > 100 µM (inactive)

Then this molecule:
# GI50 (molecule: O=C1c2ccncc2C(=O)c2c(O)ccc(O)c21 ) is 27.5 µM (inactive)

###

- Test system: Malme-3M
- test summary: NCI tumour cell line growth inhibition, 48 h
Active and inactive are the calls of the source. Cut-off read from the data, not from the text of the source: active = GI50 up to about 1.1 µM and inactive = higher.
In this section we review reported GI50 values for a set of compounds.

Before answering, review these 4 worked examples.
# GI50 (compound: C=CC(Br)(CBr)CCC(Br)C(C)C (configuration not stated) ) is 13.5 µM (inactive)

# GI50 (compound: C#CCCCOc1ncccn1 ) is > 100 µM (inactive)

# GI50 (compound: Cc1ccc(C(=O)Nc2ccc(CP(=O)(O)O)cc2CP(=O)(O)O)cc1NC(=O)c1cccc(NC(=O)Nc2cccc(C(=O)Nc3cc(C(=O)Nc4ccc(CP(=O)(O)O)cc4CP(=O)(O)O)ccc3C)c2)c1 ) is > 100 µM (inactive)

# GI50 (compound: COC(=O)/C=C1\C(=O)Nc2ccc(Br)cc21 ) is 2.33 µM (inactive)

Then this compound:
# GI50 (compound: CCc1ccccc1-n1c2nc(=O)n(C)c(=O)c-2nc2ccccc21 ) is 5.7 µM (inactive)

###

- System: 786-0
- test summary: NCI tumour cell line growth inhibition, 48 h
Active and inactive are the calls of the source. Rule as the data show it: active = GI50 up to about 1.1 µM and inactive = higher.
readout name: GI50

Before answering, review these 4 worked examples.
# GI50 (compound: Nc1cccc2cc(S(=O)(=O)Nc3ccc(C(=O)O)cc3)ccc12 ) is > 100 µM (inactive)

# GI50 (compound: CN(C)NC(=S)NC12CC3CC(CC(C3)C1)C2 ) is > 100 µM (inactive)

# GI50 (compound: C#CC[N+](C)(CC#C)CC#C ) is > 100 µM (inactive)

# GI50 (compound: COc1ccc(/N=C2\C(=N/c3ccc(OC)cc3)N(S(=O)(=O)c3ccccc3)C(=S)N2c2ccc(OC)cc2)cc1 ) is > 100 µM (inactive)

Further cases:
# GI50 (compound: c1ccc2c(c1)c1c(c3ccccc32)CN2CCCC2C1 (stereo unspecified) ) is 3.94 µM (inactive)

# GI50 (compound: c1ccc2c(c1)nc1n2CCSC1 ) is > 100 µM (inactive)

# GI50 (compound: CCOC(=O)c1cc2c(C(=O)c3ccc([N+](=O)[O-])cc3)c(C(C)=O)ccc2[nH]1 ) is 7.36 µM (inactive)

# GI50 (compound: COc1cc(/C=C/C=C2\CCC/C(=C\C=C\c3ccc(O)c(OC)c3)C2=O)ccc1O ) is 10 µM (inactive)

###

- Test system: NCI-H460
- test summary: NCI tumour cell line growth inhibition, 48 h
The source made the active and inactive calls. No stated cut-off is given here; in the data, active = GI50 up to about 1.1 µM and inactive = higher.
Can you answer with just one of these options? 1.0 for active, 0.0 for inactive

For orientation, consider the following solved cases.
Assay outcome for COc1ccc(/C=C2\CN(C)C/C(=C\c3ccc(OC)c(OC)c3OC)C2=O)c(OC)c1OC : what was it?
1.0

Assay outcome for N#CC(C#N)=C1CCC2C(=C(C#N)C#N)CCC12 (stereo not given) : what was it?
0.0

Assay outcome for Cc1ccc(-c2n[nH]c(=O)n2N)cc1 : what was it?
0.0

Assay outcome for COc1ccc(C2CC(c3c(C)nn(-c4ccccc4)c3-c3ccc(C)cc3O)=NN2c2ccccc2)cc1 (stereo not given) : what was it?
0.0

Assay outcome for Cc1cc(N(CCC#N)CCC#N)ccc1/C=C1N=C(/C=C\c2ccccc2)N(c2ccc(Cl)cc2)C\1=O : what was it?
0.0

Assay outcome for NS(=O)(=O)c1nn2c(Br)c(-c3ccccc3)nc2s1 : what was it?
0.0

Assay outcome for CSc1nc2c(nc(N)n2C2OCC(O)C(O)C2O)c(=O)[nH]1 (stereo not given) : what was it?
0.0

Assay outcome for COC1=C2C[C@](OC)(C#CC=CC#CC2O)CC1(C)C (stereo not given in full) : what was it?
0.0

Assay outcome for C[C@H]1O[C@@H](O[C@H]2[C@@H](O)C[C@H](O[C@H]3[C@@H](O)C[C@H](O[C@H]4CC[C@@]5(C)[C@H](CC[C@@H]6[C@@H]5CC[C@]5(C)[C@@H](C7=CC(=O)OC7)[C@@H](O)C[C@]65O)C4)O[C@@H]3C)O[C@@H]2C)C[C@H](O)[C@@H]1O : what was it?
1.0

Assay outcome for CC1=C(C(=O)N(C)c2ccc(Cl)c(C(=O)OC(C)C)c2)SCCO1 : what was it?
0.0

Further cases:
Assay outcome for Nc1nc(NCc2ccccc2)cc(NCc2ccccc2)n1 : what was it?
0.0

Assay outcome for NC(Cc1ccccc1)C(=O)OCN1C(=O)C2C3C=CC(C2C1=O)C1C2C(=O)N(COC(=O)C(N)Cc4ccccc4)C(=O)C2C31 (stereo not given) : what was it?
0.0

Assay outcome for Clc1ccccc1C(Nc1cnccn1)Nc1cnccn1 : what was it?
0.0

###

- Tested on: MDA-MB-435
- test summary: NCI tumour cell line growth inhibition, 48 h
Active and inactive are the calls of the source. Rule as the data show it: active = GI50 up to about 1.1 µM and inactive = higher.
Can you answer with just one of these options? true (active), false (inactive)

For orientation, consider the following solved cases.
Assay outcome for CNC(=O)C(NC(=O)[C@H](CC(C)C)NC(=O)[C@@H](S)CCN1C(=O)N(C)C(C)(C)C1=O)C(C)(C)C (stereo partly specified) : what was it?
false

Assay outcome for CC(C)=C[C@H]1C[C@H](C)[C@H]2CC[C@H](C)c3c2c1c(C)c1ncoc31 : what was it?
false

Assay outcome for CC1Cn2c(nc3ccccc32)NC1=O (stereo unspecified) : what was it?
false

Assay outcome for O=C1CCc2nc3ncccc3cc2C1 : what was it?
false

Assay outcome for C#CCOC(=O)c1ccccc1O : what was it?
false

Further cases:
Assay outcome for CC[n+]1c(-c2ccccc2)c2cc(N)ccc2c2ccc(N)cc21 [HOMIDIUM BROMIDE] : what was it?
false

Assay outcome for COC1C(=O)N(SC)C1c1ccccc1Cl (stereo unspecified) : what was it?
false
